// provenance: patent US20240180883A1

# measurement.notes: Phase 1 food effect study, 100 mg tablet fed vs fasted
# Type: in vivo, human
# assay.conditions: both sexes, human, plasma, oral, 100 mg, 1 × 100 mg tablet, fasted; read-out: Cmax, geometric mean (geometric CV %)
assay.metric: Cmax (ng/mL)

>>> quantitative_readout("C[C@@H]1[C@H](c2ccccc2)C[C@H](NC(=O)c2cnc3c(c2)C[C@@]2(C3)C(=O)Nc3ncccc32)C(=O)N1CC(F)(F)F [ubrogepant]")
334

* * *

# measurement.notes: Study B: drug interaction PK with rifampin
# Format: in vivo, human
# assay.conditions: human, plasma, oral, ubrogepant 100 mg + rifampin 600 mg; read-out: Cmax, mean (SD)
assay.metric: Cmax (ng/mL)

>>> quantitative_readout("C[C@@H]1[C@H](c2ccccc2)C[C@H](NC(=O)c2cnc3c(c2)C[C@@]2(C3)C(=O)Nc3ncccc32)C(=O)N1CC(F)(F)F")
136
